biological target: T1, recombinant human TfR1 (transferrin receptor protein 1) (human, UniProt P02786 89-760); test: ELISA on plate-coated recombinant hTfR1, fluorescent anti-(H+L) IgG-A488 detection, % normalized RFUs
T1 construct: Recombinant protein in SPR and ELISA; they were assigned to this molecule; also called hTfR1; huTfR1
T1 sequence (P02786 89-760 limits assumed): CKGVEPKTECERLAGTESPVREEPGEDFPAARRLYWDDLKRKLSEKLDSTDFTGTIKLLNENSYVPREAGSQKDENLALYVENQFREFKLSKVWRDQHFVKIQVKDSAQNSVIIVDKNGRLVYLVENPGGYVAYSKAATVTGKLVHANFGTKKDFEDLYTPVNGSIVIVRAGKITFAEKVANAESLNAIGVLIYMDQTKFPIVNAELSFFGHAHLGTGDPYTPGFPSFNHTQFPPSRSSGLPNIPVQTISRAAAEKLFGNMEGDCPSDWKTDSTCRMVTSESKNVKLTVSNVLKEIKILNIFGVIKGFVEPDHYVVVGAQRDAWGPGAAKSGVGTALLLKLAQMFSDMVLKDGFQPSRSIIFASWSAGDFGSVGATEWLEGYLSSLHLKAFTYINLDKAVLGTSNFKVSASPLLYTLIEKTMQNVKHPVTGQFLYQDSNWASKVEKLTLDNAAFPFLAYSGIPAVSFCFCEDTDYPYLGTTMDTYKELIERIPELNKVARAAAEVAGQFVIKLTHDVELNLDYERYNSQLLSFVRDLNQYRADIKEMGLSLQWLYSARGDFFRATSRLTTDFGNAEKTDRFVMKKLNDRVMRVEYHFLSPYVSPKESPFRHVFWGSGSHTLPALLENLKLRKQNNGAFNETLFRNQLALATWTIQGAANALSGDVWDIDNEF
Test Readout: EC50 (nM)
Answers are plain numbers, in nM.

Field request: EC50 | item: humanized anti-TfR Fab 3A4 VH3 (N54S)/Vκ4 (Fab, V domains shown, also called 3A4 (VH3-N54S/Vk4)) VH: EVQLVQSGSELKKPGASVKVSCTASGFNIKDDYMYWVRQPPGKGLEWIGWIDPESGDTEYASKFQDRVTVTADTSTNTAYMELSSLRSEDTAVYYCTLWLRRGLDYWGQGTLVTVSS VL: DIVMTQSPLSLPVTPGEPASISCRSSKSLLHSNGYTYLFWFQQRPGQSPRLLIYRMSNLASGVPDRFSGSGSGTDFTLKISRVEAEDVGVYYCMQHLEYPFTFGGGTKVEIKR
1.9
